- assay-text: qHTS assay to identify small molecule agonists of the RXR signaling pathway - cell viability counter screen (AID 1159529); further: nearly all actives have a fitted effect of over 50% in size
- experimental-setup: RXR-alpha-bla HEK293T viability, CellTiter-Glo, 16 h; series mostly up to 76.8 µM
Records with an inconclusive call do not appear. Activity calls are given as the source filed them. The call rests on the fitted dose curve; in most records, active means well fitted cell-killing curve with a large enough effect in the repeat runs; inconclusive means weak or mixed curves, or effect the other way; inactive means no such curve, though single readings can be large or run the other way.
Outcomes: active, inactive

compound	assigned-label
ClC1=C(Cl)C2(Cl)C3C(Cl)C=CC3C1(Cl)C2(Cl)Cl (stereo not drawn)	active
CCCCOP(=O)(CCCC)OCCCC	inactive
ClC1=C(Cl)[C@]2(Cl)[C@H]3[C@H]([C@H]4C=C[C@H]3C4)[C@@]1(Cl)C2(Cl)Cl	inactive
O=[N+]([O-])c1ccc(Oc2ccc(C(F)(F)F)cc2[N+](=O)[O-])cc1	inactive
CC(C)CC(C)N (stereo not drawn)	inactive
O=c1ssc(Cl)c1Cl	inactive
COc1cccc2c1C(=O)c1c(O)c3c(c(O)c1C2=O)C[C@@](O)(C(=O)CO)CC3OC1CC(N2CCOC(OC)C2)C(O)C(C)O1 (stereo partly drawn)	inactive
O=C(CBr)c1ccc(O)cc1	inactive

###

- assay-text: qHTS assay to identify small molecule agonists of the AP-1 signaling pathway - cell viability counter screen (AID 1159525); further: nearly all actives have a fitted effect of over 55% in size
- experimental-setup: ME-180 (cervical carcinoma) AP-1-bla cells viability, ATP luminescence, 5 h; series mostly up to 76.8 µM
- Experimental: National Center for Advancing Translational Sciences [NCATS] NIH Chemical Genomics Center [NCGC] U.S. Environmental Protection Agency [EPA] National Institutes of Environmental Health Sciences [NIEHS] National Toxicology Program [NTP] […] After the plates were read for Beta-Lactamase assay on Envision; 3 ul Cell Titer Glo (Promega) was added to measure the cytotoxicity and the plates were then incubated at RT in dark for 30 min. […] ViewLux data was expressed as relative luminescence units. […]
Records with an inconclusive call do not appear. Calls of active or inactive are those of the source. Calls come from the whole dose curve.
Outcomes: label 1 = active, label 0 = inactive

compound	assigned-label
O=C(CBr)c1ccc(O)cc1	label 0
C[As+](C)(C)CC(=O)[O-]	label 0
ClC1=C(Cl)[C@]2(Cl)[C@@H]3[C@@H]4C[C@@H]([C@H]5O[C@@H]45)[C@@H]3[C@@]1(Cl)C2(Cl)Cl	label 1
CCOc1cc(C(C)(C)C)ccc1C1COC(c2c(F)cccc2F)=N1 (stereo not drawn)	label 0
CC(C)(COCC1CO1)COCC1CO1 (stereo not drawn)	label 0
CCOP(=S)(OCC)OC(Cl)C(Cl)(Cl)Cl (stereo not drawn)	label 0
CC(c1ccc(O)cc1)c1ccc(O)cc1	label 0
CC(C)CCCCCOC(=O)c1ccccc1C(=O)OCCCCCC(C)C	label 0
CCOC(=O)CC(=O)CCl	label 0
c1ccc2c(c1)[nH]c1cnccc12	label 0
ClCc1ccc(Cl)cc1Cl	label 0
FC(F)(F)c1cccc(C2=CCN(CCc3ccc4ccccc4c3)CC2)c1	label 0
O=C(O)C1C2CCC(O2)C1C(=O)O (stereo not drawn)	label 0

###

- assay-text: Caspase-3/7 induction in HepG2 cells by small molecules, qHTS cell viability counter screen (AID 1346981); further: nearly all actives have a fitted effect of over 30% in size
- experimental-setup: CellTiter-Fluor fluorescence, 17 h; series mostly up to 92.4 µM
Results filed as inconclusive are left out. Activity calls are given as the source filed them. The call rests on the fitted dose curve; in most records, active means well fitted cell-killing curve with a large enough effect in the repeat runs; inconclusive means weak or mixed curves, or effect the other way; inactive means flat fitted curve, though single readings scatter.
Outcomes: 1 (active), -1 (inactive)

molecule	assigned-label
CCOc1cc(C(C)(C)C)ccc1C1COC(c2c(F)cccc2F)=N1 (stereo unspecified)	-1
C[C@@H](Oc1ccc(Cl)cc1Cl)C(=O)O	-1
Cc1ccc(OP(=O)(Oc2ccccc2)Oc2ccccc2)cc1	-1
N#CCCO	-1
COC(=O)N(C(=O)N1COC2(C(=O)OC)Cc3cc(Cl)ccc3C2=N1)c1ccc(OC(F)(F)F)cc1 (stereo unspecified)	-1
C=CC(=O)N(C)C	-1
NC(=O)c1ccc(N)nc1	-1
N#C/C=C/c1ccccc1	-1
C=COCCCl	-1
CN(C)C(=S)[S-].CN(C)C(=S)[S-].[Cu+2]	1
CC(=[OH+])/C=C(/C)[O-].CC(=[OH+])/C=C(\C)[O-].CC(=[OH+])/C=C(\C)[O-].[Fe]	-1
C[C@]12CC[C@H]3[C@@H](CCC4=CC(=O)CC[C@@]43C)[C@@H]1CC[C@@H]2O	-1
Cc1cc(C)c(C2=C(OC(=O)CC(C)(C)C)C3(CCCC3)OC2=O)c(C)c1	-1
CC(C)(c1ccc(O)c(-c2ccccc2)c1)c1ccc(O)c(-c2ccccc2)c1	1
CC(=O)Nc1ccc2c(c1)Cc1ccccc1-2	-1
CC(=O)c1ccc(-c2ccccc2)cc1	-1
CCCCCCCCCCCCCCCC[N+](C)(C)C	1
Oc1cccc(-c2ccccc2)c1	-1
Cc1cc(C(C)(C)c2cc(C)c(O)c(C)c2)cc(C)c1O	1
ClC1=C(Cl)[C@]2(Cl)[C@@H]3[C@@H](Cl)[C@H](Cl)C[C@@H]3[C@@]1(Cl)C2(Cl)Cl	-1
FC(Cl)(Cl)Cl	-1
